Data provenance: PubChem BioAssay (NCI)

Overview of reported TGI across a group of molecules:
tested on: SR leukemia; experiment: NCI tumour cell line growth inhibition, 48 h

ENTRY_SMILES | TESTED_SYSTEM | MEASUREMENT
Cc1cc(=O)[nH]c(CNC(=O)c2cccc3ccccc23)n1 | SR leukemia | > 100 µM

Query TGI on SR leukemia for Cc1cc2c(cc1C)C(=O)c1ncccc1C2=O 25 µM

Moving on to C/C(=C/CNc1ncnc2c1ncn2CCC(=O)O)CO > 100 µM

###

system: TK-10 renal; experiment: NCI tumour cell line growth inhibition, 48 h
Overview of reported log10 TGI across a group of compounds:
Hi team, quick reminder: these entries are log10 of TGI (µM).

Look over these answered cases.
COMPOUND | TESTED_SYSTEM | MEASUREMENT
O=S1Cc2ccccc2CS1 (configuration not stated) | TK-10 renal | 1.75
Cc1cc(N2CCOCC2)nc(N(CCNc2ccnc3cc(Cl)ccc23)Cc2ccco2)n1 | TK-10 renal | 0.98
C/C=C1/CN2CCC34C5=CC(=O)C(c6cc7c(cc6OC)N(C)C6=C(C(=O)OC)CC8(CC)CCCN9CCC67C98)=CC5=NC23CCC1C4C(=O)OC (configuration not stated) | TK-10 renal | 1.49
CCOC(=O)c1c(Nc2ccccc2)sc2cccnc12 | TK-10 renal | 1.94
O=S1c2ccccc2N=C(c2ccc3ccccc3c2)CC1c1ccccc1 (configuration not stated) | TK-10 renal | 1.84

Record request: log10 TGI value, item CC(C)c1ccc2c(c1)[C@@]1(C)CC[C@H](C)C(C)(C)C1CC2 (some centres not stated) 1.52

Moving on to Fc1cc(C2=C[C@H](c3ccc4c(c3)OCO4)NC(=S)N2)c(Cl)cc1Cl 1.98

###

system: HCC-2998 colon; experiment: NCI tumour cell line growth inhibition, 48 h
MEASURED_PARAMETER: GI50

Look over these answered cases.
COMPOUND | TESTED_SYSTEM | GI50
C[C@@]12CCC[C@@](C)(C(=O)O)C1CC[C@]13C=C(CO)[C@](O)(CCC12)C3 (some centres undefined) | HCC-2998 colon | > 100 µM
CCCCN(CCCC)c1cc(C(=O)CCCCCN)c2ccccc2n1 | HCC-2998 colon | 1.76 µM
Cc1oncc1C(=O)Nc1ccc(C(F)(F)F)cc1 | HCC-2998 colon | 64.5 µM

Now examine the next entry.
Record request: GI50 value, item COc1ccc(C2=C(Br)C(=O)OC2)cc1Cl 14.9 µM

###

Overview of reported TGI across a group of molecules:
test system: SK-OV-3 ovarian; assay: NCI tumour cell line growth inhibition, 48 h

Look over these answered cases.
MOLECULE | MEASUREMENT
O=C(CC(=O)C(=O)CC(=O)OCc1ccccc1)OCc1ccccc1 | > 100 µM
Fc1cc(C2=C[C@H](c3ccc4c(c3)OCO4)NC(=S)N2)c(Cl)cc1Cl | > 100 µM
C[C@@]12CCC[C@@](C)(C(=O)O)C1CC[C@]13C=C(CO)[C@](O)(CCC12)C3 (stereo partly specified) | > 100 µM

Record request: TGI value, item NC(=O)ON=C1CCN(Cc2ccccc2)CC1 > 100 µM

Moving on to O=C(COC(c1ccc(F)cc1)c1ccc(F)cc1)N1CCN(CCCc2ccccc2)CC1 21.5 µM

Moving on to Cc1cc(=O)cc2sc3cc(Cl)ccc3nc1-2 > 82.5 µM

###

test system: OVCAR-5 ovarian; assay: NCI tumour cell line growth inhibition, 48 h
Overview of reported TGI across a group of molecules:

Look over these answered cases.
MOLECULE | MEASURED_PARAMETER | MEASUREMENT
COC1=C(C)C(=O)C2C(C1=O)C(c1ccc(OC)c(OC)c1)[C@H]2C (some centres undefined) | TGI | > 100 µM
COC(=O)C1C2CC3C(OC(=O)C31)C2I (centres undefined) | TGI | > 100 µM
NC(=O)c1ncn(C2OC(CO)C(O)C2O)n1 (centres undefined) | TGI | > 100 µM
CSc1c(C#N)c(O)n(-c2ccc(Cl)cc2)c(=O)c1C#N | TGI | > 100 µM
Cc1cc2c(cc1Cl)SC(NN(C)C)=NS2(=O)=O | TGI | > 10 µM

Record request: TGI value, item Cc1cc(C)c2c(=O)n(CN3CCN(c4ccccc4)CC3)sc2n1 49.2 µM

Moving on to OCC1OC(n2ccc3cnccc32)CC1O (centres undefined) > 100 µM

Moving on to COc1ccc(S(=O)(=O)Nc2cc(/C=C\c3cc(OC)c(OC)c(OC)c3)cc(OC)c2OC)cc1OC > 100 µM

Moving on to O=c1oc2c(Br)c(O)c(Br)cc2c2ccccc12 > 100 µM

Moving on to O=CC(O)C(O)C(O)COc1cc(CO)cc2c1C(=O)c1ccccc1C2=O (centres undefined) > 100 µM

Moving on to NCCCCN > 100 µM

Moving on to COc1ccc(C2=C(Br)C(=O)OC2)cc1Cl > 100 µM

Moving on to COc1cccc2c3cccc(OC)c3c3[nH]cnc3c12 10 µM

Moving on to CC(C)=C1C(=O)C[C@]2(C)C/C=C(\C)CC/C=C(\C)CC[C@@H]12 32.1 µM

###

Overview of reported TGI across a group of molecules:
test system: HT29 colon; test: NCI tumour cell line growth inhibition, 48 h

MOLECULE | MEASUREMENT
CC1C(=O)CCC1C(Sc1ccccc1)(Sc1ccccc1)Sc1ccccc1 (stereo unspecified) | > 100 µM
COC(OC)C1(c2ccccc2)Oc2ccccc2C1=O (stereo unspecified) | > 100 µM
Cc1oncc1C(=O)Nc1ccc(C(F)(F)F)cc1 | > 100 µM
NC(=S)SC1=NNC2(C(=O)N1)c1ccccc1-c1ccccc12 | > 10 µM
Cn1c(O)c(C=N)c(=O)n(C)c1=O | > 100 µM

Query TGI on HT29 colon for CN(C)C/C=C(/c1ccc(Br)cc1)c1cccnc1 > 100 µM

###

system: UO-31 renal; test: NCI tumour cell line growth inhibition, 48 h
MEASURED_PARAMETER: log10 TGI (log10 of the value in µM)
Hi team, quick reminder: these entries are log10 of TGI (µM).

Look over these answered cases.
COMPOUND | MEASUREMENT
CCC[CH2][Sn]([CH2]CCC)([O]C(=O)c1cc(OC)c(OC)c(OC)c1)[O]C(=O)c1cc(OC)c(OC)c(OC)c1 | 0.42
C#CCn1c(=O)c(C)cn(/C(=C/C(=O)OCC)C(=O)OCC)c1=O | 1.37
Fc1ccc(C2(CCCN3CCc4[nH]c5cc(F)ccc5c4C3)OCCO2)cc1 | 1.03
CC(/C=C/C=C/C=C/C=C/C=C/C(O)=C1/C(=O)C(CCC(=O)O)N(C)C1=O)=C\C(C)C(OC1CC(O)C(O)C(C)O1)C(C)C (stereo not drawn) | 1.13
COc1cccc(/C=N/[N-]C(N)=O)c1[O-].[Cu+2].[OH3+].c1cnc2c(c1)ccc1cccnc12 | 1.58

Now examine the next entry.
Query log10 TGI on UO-31 renal for CCOc1ccc(/C=N/Nc2cc(C)nc3ccc(Cl)cc23)cc1 0.47

###

test system: SK-MEL-2 melanoma; experiment: NCI tumour cell line growth inhibition, 48 h
MEASURED_PARAMETER: GI50

Look over these answered cases.
MOLECULE | GI50
Cc1ccccc1NC(=O)N/C(N)=N/c1nc2ccccc2s1 | > 100 µM
O=[N+]([O-])c1ccc(Oc2cccnc2)c([N+](=O)[O-])c1 | 3.97 µM

Record request: GI50 value, item COc1cccc(C2=NN(C(C)=O)C(c3cc(OC)c(OC)c(OC)c3)C2)c1 (stereo not drawn) 23.8 µM

###

tested on: SK-MEL-28 melanoma; test: NCI tumour cell line growth inhibition, 48 h
MEASURED_PARAMETER: TGI

ENTRY_SMILES | TESTED_SYSTEM | MEASUREMENT
Cc1oncc1C(=O)Nc1ccc(C(F)(F)F)cc1 | SK-MEL-28 melanoma | > 100 µM
O=C1C(=O)c2ccccc2C=C1[N+](=O)[O-] | SK-MEL-28 melanoma | > 100 µM

Now examine the next entry.
Record request: TGI value, item C=CCOC1=C2CC[C@H](O)[C@@]2(C)CCC1=O > 100 µM

###

system: HL-60(TB) leukemia; test: NCI tumour cell line growth inhibition, 48 h; in the data active = GI50 below about 0.43 µM; inactive = the rest
Response enum: active, inactive

Sample answers from the record:
COMPOUND | TESTED_SYSTEM | CLASS
COC(=O)C1=C(C(=O)Nc2cccnc2)C2OC1(C(Cc1ccccc1)Oc1ccccc1)C1OC21 (centres undefined) | HL-60(TB) leukemia | inactive
O=C(/C=C/c1ccccc1Cl)c1ccc(O)cc1 | HL-60(TB) leukemia | inactive
[Ce+3].[Cl-].[O-]/N=C(\c1ccccc1)c1ccccn1.[O-]/N=C(\c1ccccc1)c1ccccn1.[O-]/N=C(\c1ccccc1)c1ccccn1 | HL-60(TB) leukemia | inactive
COc1cccc(/C=N/[N-]C(N)=O)c1[O-].[Cu+2].[OH3+].c1cnc2c(c1)ccc1cccnc12 | HL-60(TB) leukemia | inactive

Fill in: this test's call for COc1cccc(C2=NN(C(C)=O)C(c3cc(OC)c(OC)c(OC)c3)C2)c1 (centres undefined) is ___ inactive

Moving on to Cc1ccccc1NC(=O)N/C(N)=N/c1nc2ccccc2s1 active

Moving on to O=C(Nc1cccnc1)c1cccs1 inactive

Moving on to O=C(/C=C/c1ccccc1O)c1ccccc1 inactive

Moving on to Cc1oncc1C(=O)Nc1ccc(C(F)(F)F)cc1 inactive
